Tested on: H1299
Assay: CCK-8 cell viability, single agent
Format: cell-based, Human
Conditions: Homo sapiens, NCI-H1299; H1299, CCK-8, 72 h; mean ± SD
experimental-endpoint: IC50

smiles-record	study-target	value
COc1ccc(-c2ccc(/C=C3\C(=O)N(c4cccc(C(=O)O)c4)c4ccccc43)o2)cc1C(=O)Nc1cccc(OC(F)(F)F)c1	H1299	> 50 µM

----------
Biological target: Ku70–Ku80 (Homo sapiens, UniProt P12956+P13010)
Sequence (P12956 whole entry): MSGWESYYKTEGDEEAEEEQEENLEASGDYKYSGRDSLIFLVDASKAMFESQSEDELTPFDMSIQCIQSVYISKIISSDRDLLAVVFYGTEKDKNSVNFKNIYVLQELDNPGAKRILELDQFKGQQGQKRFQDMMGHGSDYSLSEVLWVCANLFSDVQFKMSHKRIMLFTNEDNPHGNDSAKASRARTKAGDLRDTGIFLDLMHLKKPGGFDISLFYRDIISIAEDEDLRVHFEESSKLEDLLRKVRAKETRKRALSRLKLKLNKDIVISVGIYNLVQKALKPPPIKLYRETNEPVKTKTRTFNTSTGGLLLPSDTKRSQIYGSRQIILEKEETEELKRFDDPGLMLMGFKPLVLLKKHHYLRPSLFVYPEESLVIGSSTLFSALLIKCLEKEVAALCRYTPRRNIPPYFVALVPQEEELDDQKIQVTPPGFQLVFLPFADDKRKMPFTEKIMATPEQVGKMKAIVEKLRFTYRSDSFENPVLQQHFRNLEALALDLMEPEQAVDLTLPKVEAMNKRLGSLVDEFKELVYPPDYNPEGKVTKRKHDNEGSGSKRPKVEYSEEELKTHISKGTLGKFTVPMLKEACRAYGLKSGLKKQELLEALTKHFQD
Sequence (P13010 whole entry): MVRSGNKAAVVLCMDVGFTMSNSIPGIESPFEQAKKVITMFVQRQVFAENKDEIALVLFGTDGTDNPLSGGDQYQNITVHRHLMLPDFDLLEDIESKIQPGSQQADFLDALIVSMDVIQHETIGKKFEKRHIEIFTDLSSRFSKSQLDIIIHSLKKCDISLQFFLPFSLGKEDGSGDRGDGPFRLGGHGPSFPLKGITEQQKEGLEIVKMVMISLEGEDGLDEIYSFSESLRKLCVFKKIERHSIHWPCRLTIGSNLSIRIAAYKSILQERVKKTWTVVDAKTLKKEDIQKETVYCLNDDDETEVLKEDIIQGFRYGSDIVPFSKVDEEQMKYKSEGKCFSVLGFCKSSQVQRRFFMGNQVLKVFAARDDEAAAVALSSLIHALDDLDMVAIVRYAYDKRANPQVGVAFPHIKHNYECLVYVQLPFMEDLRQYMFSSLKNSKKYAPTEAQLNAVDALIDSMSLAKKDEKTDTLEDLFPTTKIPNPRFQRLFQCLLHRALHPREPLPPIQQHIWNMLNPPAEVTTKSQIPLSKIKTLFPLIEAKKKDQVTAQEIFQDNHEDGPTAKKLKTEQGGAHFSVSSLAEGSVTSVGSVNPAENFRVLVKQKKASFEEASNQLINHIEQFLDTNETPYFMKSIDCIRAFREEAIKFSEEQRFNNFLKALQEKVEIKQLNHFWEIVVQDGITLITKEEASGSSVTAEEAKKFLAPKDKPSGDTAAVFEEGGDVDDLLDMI
Experiment: Microscale thermophoresis (MST)
Settings: labeled Ku 5 nM, 5% DMSO, single-site fit

molecule	Kd [nM]
COc1ccc(-c2ccc(/C=C3\C(=O)N(c4cccc(C(=O)O)c4)c4ccccc43)o2)cc1C(=O)Nc1cccc(OC(F)(F)F)c1 [GL-3392]	2100

----------
Biological target: DNA-PK (Homo sapiens, UniProt P12956+P13010)
Construct: Ku 70/80 from baculovirus-infected Sf9 cells
Sequence (P12956 whole entry): as the sequence (P12956 whole entry) above
Sequence (P13010 whole entry): as the sequence (P13010 whole entry) above
Test: DNA-PK kinase assay (phosphate transfer to p53 peptide)
Details: DNA-dependent phosphate transfer to synthetic p53 peptide, purified DNA-PK; mean and SD of triplicate
IC50 values for the molecules below.
experimental-endpoint: IC50 (nM)

smiles-record	study-target	experimental-endpoint	value
O=C(O)c1cccc(N2C(=O)/C(=C\c3ccc(-c4ccc(F)c(C(=O)Nc5cccc(OC(F)(F)F)c5)c4)o3)c3ccccc32)c1	DNA-PK (Homo sapiens, UniProt P12956+P13010)	IC50	1720
COc1cccc(NC(=O)c2cc(-c3ccc(/C=C4\C(=O)N(c5cccc(C(=O)O)c5)c5ccccc54)o3)ccc2OC)c1	DNA-PK (Homo sapiens, UniProt P12956+P13010)	IC50	770
COc1cccc(NC(=O)c2cc(-c3ccc(/C=C4\C(=O)N(c5cccc(C(=O)O)c5)c5ccccc54)o3)ccc2F)c1	DNA-PK (Homo sapiens, UniProt P12956+P13010)	IC50	1740
COc1ccc(-c2ccc(/C=C3\C(=O)N(c4cccc(C(=O)O)c4)c4ccccc43)o2)cc1C(=O)Nc1cccc(OC(F)(F)F)c1	DNA-PK (Homo sapiens, UniProt P12956+P13010)	IC50	770

----------
Tested on: MDA-436
Experiment: CCK-8 cell viability, single agent
Format: cell-based, Human
Conditions: Homo sapiens; MDA-436, CCK-8, 72 h; mean ± SD
experimental-endpoint: IC50 (µM)

smiles-record	experimental-endpoint	value
COc1ccc(-c2ccc(/C=C3\C(=O)N(c4cccc(C(=O)O)c4)c4ccccc43)o2)cc1C(=O)Nc1cccc(OC(F)(F)F)c1	IC50	22.2
